# Experiment summary: xn = mol fraction of the nth substance listed, in the solute-free solvent
# Condition notes: 318.15 K; x2 = 0.1666
Each entry gets No if its solubility (g/100 g solution) stays under 4, and Yes if its solubility (g/100 g solution) is 4 or above.

{"Molecule": "CS(=O)(=O)c1ccc(C(O)C(CF)NC(=O)C(Cl)Cl)cc1 (stereo not given) + CC(C)O + O", "Label class": "No"}
{"Molecule": "O=[N+]([O-])c1cc[nH]n1 + CCCO + O", "Label class": "Yes"}
{"Molecule": "COC(=O)C1=C(C)NC(C)=C(C(=O)OCC(C)C)C1c1ccccc1[N+](=O)[O-] (stereo not given) + CCCO + O", "Label class": "Yes"}
{"Molecule": "COC(=O)C1=C(C)NC(C)=C(C(=O)OCC(C)C)C1c1ccccc1[N+](=O)[O-] (stereo not given) + CC(C)O + O", "Label class": "Yes"}
{"Molecule": "CC(=O)Nc1ccc(OC(=O)c2ccccc2OC(C)=O)cc1 + CC(C)O + O", "Label class": "No"}

----------
# Experiment summary: xn = mol fraction of the nth substance listed, in the solute-free solvent
# Condition notes: 283.15 K; x2 = 0.1139
Reported solubility (g/100 g solution) is given for each of the following molecules.
Quantity name: solubility (g/100 g solution)

{"Molecule": "COC(=O)C1=C(C)NC(C)=C(C(=O)OCC(C)C)C1c1ccccc1[N+](=O)[O-] (centres undefined) + CCCO + O", "Value": 1.25}
{"Molecule": "O=[N+]([O-])c1cc[nH]n1 + CCCO + O", "Value": 0.626}
{"Molecule": "CS(=O)(=O)c1ccc(C(O)C(CF)NC(=O)C(Cl)Cl)cc1 (centres undefined) + CC(C)O + O", "Value": 0.215}
{"Molecule": "CC(=O)Nc1ccc(OC(=O)c2ccccc2OC(C)=O)cc1 + CC(C)O + O", "Value": 0.0212}

----------
Reported solubility (g/100 g solution) is given for each of the following molecules.
# Experiment summary: xn = mol fraction of the nth substance listed, in the solute-free solvent
# Condition notes: 293.15 K; x2 = 0.5454

{"Molecule": "COC(=O)C1=C(C)NC(C)=C(C(=O)OCC(C)C)C1c1ccccc1[N+](=O)[O-] (stereo not given) + CC(C)O + O", "solubility (g/100 g solution)": 5.27}
{"Molecule": "CS(=O)(=O)c1ccc(C(O)C(CF)NC(=O)C(Cl)Cl)cc1 (stereo not given) + CC(C)O + O", "solubility (g/100 g solution)": 0.702}
{"Molecule": "COC(=O)C1=C(C)NC(C)=C(C(=O)OCC(C)C)C1c1ccccc1[N+](=O)[O-] (stereo not given) + CCCO + O", "solubility (g/100 g solution)": 4.45}
{"Molecule": "O=[N+]([O-])c1cc[nH]n1 + CCCO + O", "solubility (g/100 g solution)": 3.25}
{"Molecule": "CC(=O)Nc1ccc(OC(=O)c2ccccc2OC(C)=O)cc1 + CC(C)O + O", "solubility (g/100 g solution)": 0.167}

----------
# Experiment summary: xn = mol fraction of the nth substance listed, in the solute-free solvent
# Condition notes: 308.15 K; x2 = 0.1
Reported solubility (g/100 g solution) is given for each of the following compounds.

{"Compound": "CC1(C)SC2C(NC(=O)C(NC(=O)N3CCNC3=O)c3ccccc3)C(=O)N2C1C(=O)O (centres undefined) + CO + CC(C)O", "solubility (g/100 g solution)": 0.276}
{"Compound": "CCCCN1CCCCC1C(=O)Nc1c(C)cccc1C.Cl.O (centres undefined) + CCO + O", "solubility (g/100 g solution)": 4.86}
{"Compound": "CCCCN1CCCCC1C(=O)Nc1c(C)cccc1C.Cl.O (centres undefined) + CO + O", "solubility (g/100 g solution)": 6.77}
{"Compound": "O=c1ccc2ccccc2o1 + CO + O", "solubility (g/100 g solution)": 0.655}

----------
Reported solubility (g/100 g solution) is given for each of the following molecules.
# Experiment summary: xn = mol fraction of the nth substance listed, in the solute-free solvent
# Condition notes: 293.15 K; x2 = 0.2068

{"Molecule": "COC(=O)C1=C(C)NC(C)=C(C(=O)OCC(C)C)C1c1ccccc1[N+](=O)[O-] (centres undefined) + CCO + O", "solubility (g/100 g solution)": 2.25}
{"Molecule": "CS(=O)(=O)c1ccc(C(O)C(CF)NC(=O)C(Cl)Cl)cc1 (centres undefined) + CCO + O", "solubility (g/100 g solution)": 1.13}
{"Molecule": "CC(=O)Nc1ccc(OC(=O)c2ccccc2OC(C)=O)cc1 + CCO + O", "solubility (g/100 g solution)": 0.0951}
{"Molecule": "O=[N+]([O-])c1cc[nH]n1 + CCO + O", "solubility (g/100 g solution)": 0.75}

----------
# Experiment summary: xn = mol fraction of the nth substance listed, in the solute-free solvent
# Condition notes: 278.15 K; x2 = 0.6
Each entry gets n if its solubility (g/100 g solution) stays under 0.6, and y if its solubility (g/100 g solution) is 0.6 or above.

{"Compound": "O=c1ccc2ccccc2o1 + CC(C)=O + O", "Label class": "y"}
{"Compound": "O=C(CC(=O)c1ccccc1)c1ccccc1 + CCO + O", "Label class": "n"}
{"Compound": "O=C(CC(=O)c1ccccc1)c1ccccc1 + CO + O", "Label class": "n"}
{"Compound": "CC1(C)SC2C(NC(=O)C(NC(=O)N3CCNC3=O)c3ccccc3)C(=O)N2C1C(=O)O (stereo unspecified) + CO + CC(C)O", "Label class": "n"}
{"Compound": "O=c1ccc2ccccc2o1 + CO + O", "Label class": "y"}

----------
Reported solubility (g/100 g solution) is given for each of the following compounds.
# Experiment summary: xn = mol fraction of the nth substance listed, in the solute-free solvent
# Condition notes: 283.15 K; x2 = 0.5454
Quantity name: solubility (g/100 g solution)

{"Compound": "CC(=O)Nc1ccc(OC(=O)c2ccccc2OC(C)=O)cc1 + CC(C)O + O", "Quantity name": "solubility (g/100 g solution)", "Value": 0.0911}
{"Compound": "COC(=O)C1=C(C)NC(C)=C(C(=O)OCC(C)C)C1c1ccccc1[N+](=O)[O-] (stereo not given) + CC(C)O + O", "Quantity name": "solubility (g/100 g solution)", "Value": 3.82}
{"Compound": "COC(=O)C1=C(C)NC(C)=C(C(=O)OCC(C)C)C1c1ccccc1[N+](=O)[O-] (stereo not given) + CCCO + O", "Quantity name": "solubility (g/100 g solution)", "Value": 3.06}
{"Compound": "CS(=O)(=O)c1ccc(C(O)C(CF)NC(=O)C(Cl)Cl)cc1 (stereo not given) + CC(C)O + O", "Quantity name": "solubility (g/100 g solution)", "Value": 0.411}
{"Compound": "O=[N+]([O-])c1cc[nH]n1 + CCCO + O", "Quantity name": "solubility (g/100 g solution)", "Value": 2.49}

----------
# Experiment summary: xn = mol fraction of the nth substance listed, in the solute-free solvent
# Condition notes: 318.15 K; x2 = 0.1139
Quantity name: solubility (g/100 g solution)

{"Molecule": "CS(=O)(=O)c1ccc(C(O)C(CF)NC(=O)C(Cl)Cl)cc1 (centres undefined) + CC(C)O + O", "Value": 1.35}
{"Molecule": "CC(=O)Nc1ccc(OC(=O)c2ccccc2OC(C)=O)cc1 + CC(C)O + O", "Value": 0.162}
{"Molecule": "O=[N+]([O-])c1cc[nH]n1 + CCCO + O", "Value": 2.95}
{"Molecule": "COC(=O)C1=C(C)NC(C)=C(C(=O)OCC(C)C)C1c1ccccc1[N+](=O)[O-] (centres undefined) + CCCO + O", "Value": 4.27}

----------
# Experiment summary: xn = mol fraction of the nth substance listed, in the solute-free solvent
# Condition notes: 298.15 K; x2 = 0.5454

{"Molecule": "CS(=O)(=O)c1ccc(C(O)C(CF)NC(=O)C(Cl)Cl)cc1 (stereo not given) + CC(C)O + O", "solubility (g/100 g solution)": 0.9}
{"Molecule": "COC(=O)C1=C(C)NC(C)=C(C(=O)OCC(C)C)C1c1ccccc1[N+](=O)[O-] (stereo not given) + CCCO + O", "solubility (g/100 g solution)": 5.28}
{"Molecule": "CC(=O)Nc1ccc(OC(=O)c2ccccc2OC(C)=O)cc1 + CC(C)O + O", "solubility (g/100 g solution)": 0.221}
{"Molecule": "COC(=O)C1=C(C)NC(C)=C(C(=O)OCC(C)C)C1c1ccccc1[N+](=O)[O-] (stereo not given) + CC(C)O + O", "solubility (g/100 g solution)": 6.2}
{"Molecule": "O=[N+]([O-])c1cc[nH]n1 + CCCO + O", "solubility (g/100 g solution)": 3.76}

The reported numbers originate from the CheMixHub drug solubility set.
